# Tested System: Mitogen-activated protein kinase kinase kinase 14 (Homo sapiens, UniProt Q99558)
# Sequence (Q99558 whole entry): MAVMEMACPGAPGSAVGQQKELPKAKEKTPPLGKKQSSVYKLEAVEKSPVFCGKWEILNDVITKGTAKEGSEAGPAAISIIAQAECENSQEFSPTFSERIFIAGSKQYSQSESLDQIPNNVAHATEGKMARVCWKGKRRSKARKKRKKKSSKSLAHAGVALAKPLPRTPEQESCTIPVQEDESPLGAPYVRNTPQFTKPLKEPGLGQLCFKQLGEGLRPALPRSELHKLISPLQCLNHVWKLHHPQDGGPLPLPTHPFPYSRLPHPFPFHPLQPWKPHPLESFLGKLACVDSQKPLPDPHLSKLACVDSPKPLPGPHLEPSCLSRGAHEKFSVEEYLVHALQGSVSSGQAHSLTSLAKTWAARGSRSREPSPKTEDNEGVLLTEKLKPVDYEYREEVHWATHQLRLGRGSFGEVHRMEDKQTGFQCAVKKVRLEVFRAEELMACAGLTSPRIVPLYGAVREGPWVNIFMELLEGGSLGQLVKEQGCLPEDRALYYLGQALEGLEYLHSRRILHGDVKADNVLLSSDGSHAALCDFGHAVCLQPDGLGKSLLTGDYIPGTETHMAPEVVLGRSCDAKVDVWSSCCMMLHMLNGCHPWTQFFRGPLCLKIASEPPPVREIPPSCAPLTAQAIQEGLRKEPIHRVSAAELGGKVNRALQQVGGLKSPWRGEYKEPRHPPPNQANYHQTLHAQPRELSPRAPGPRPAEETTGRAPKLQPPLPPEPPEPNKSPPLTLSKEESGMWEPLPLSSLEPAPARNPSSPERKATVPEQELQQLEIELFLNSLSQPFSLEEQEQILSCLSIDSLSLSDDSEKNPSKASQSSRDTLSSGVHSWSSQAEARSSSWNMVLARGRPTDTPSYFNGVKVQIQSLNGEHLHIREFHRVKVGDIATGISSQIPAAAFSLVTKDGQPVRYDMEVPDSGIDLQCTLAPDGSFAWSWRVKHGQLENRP
# Measurement Notes: Inhibition of NIK (unknown origin) after 1 to 2 hrs by ADP-FP assay
pKi: −log10 of the molar value.
Measured Quantity: pKi

CC(C)(O)C#Cc1cc2c(cc1F)OCCn1c-2nc(C(N)=O)c1Cc1ccccc1F :: 8.12
CC(O)(C#Cc1cc2c(cc1F)OCCn1cc(C(N)=O)nc1-2)CF (racemic) :: 8.06
CC(C)(O)C#Cc1cc2c(cc1F)OCCn1c-2nc(C(N)=O)c1-c1cn[nH]c1 :: 8.15
